- Method Summary: Displacement of [3H]-Tritium-N-(4-chloro-2-methyl-6-(methylcarbamoyl)phenyl)-1-(3-chloropyridin-2-yl)-3-(trifluoromethyl)-1H-pyrazole-5-carboxamide from Myzus persicae (green peach aphid) ryanodine receptor
Recorded IC50 by entry
Property: IC50

molecule="Cc1cc(C#N)cc(C(=O)NC(C)(C)CS(C)(=N)=O)c1NC(=O)c1cc(Br)nn1-c1ncccc1Cl (stereo unspecified)" assay_result="18.5 µM"
molecule=CNC(=O)c1cc(Cl)cc(C)c1NC(=O)c1cc(Br)nn1-c1ncccc1Cl assay_result="4.13 µM"
molecule="CNC(=O)c1cc(C#N)cc(C)c1NC(=O)c1cc(Br)nn1-c1ncccc1Cl [CYANTRANILIPROLE]" assay_result="2.11 µM"
molecule="Cc1cc(Cl)cc(C(=O)NC(C)(C)CS(C)(=O)=NC#N)c1NC(=O)c1cc(C(F)(F)F)nn1-c1ncccc1Cl (stereo unspecified)" assay_result="4.86 µM"
molecule="Cc1cc(C#N)cc(C(=O)NC(C)(C)CS(C)(=O)=NC#N)c1NC(=O)c1cc(Br)nn1-c1ncccc1Cl (stereo unspecified)" assay_result="8.09 µM"
molecule="Cc1cc(C(F)(C(F)(F)F)C(F)(F)F)ccc1NC(=O)c1cccc(I)c1C(=O)NC(C)(C)CS(C)(=O)=O [CHEBI:38798]" assay_result="83.5 µM"

Reference source: BindingDB's records for doi:10.1016/j.bmcl.2012.03.106
